System: 926638-142-R-J1-PDC complex spheroid viability;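 also: spheroids exposed to drugs for one week before readout; percent viability relative to DMSO vehicle control wells set as 100%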
Assay: Anticancer human tumor 926638-142-R-J1-PDC patient-derived endometrial carcinoma cell line growth inhibition [POLQ]
Conditions: second compound 10 µM; first compound 0.001 µM; active compounds read low
viability, T/C overview

Example entries begin here.
molecule | system-under-test | obs-value
Cn1ncnc1[C@H]1c2n[nH]c(=O)c3cc(F)cc(c23)N[C@@H]1c1ccc(F)cc1 + COC1C(OC(N)=O)C(O)C(Oc2ccc3c(O)c(NC(=O)c4ccc(O)c(CC=C(C)C)c4)c(=O)oc3c2C)OC1(C)C | 926638-142-R-J1-PDC complex spheroid viability | 90.2%
CC[C@@]1(O)C(=O)OCc2c1cc1n(c2=O)Cc2cc3c(CN(C)C)c(O)ccc3nc2-1 + Nc1ccc(C#CCN(C(=O)Cc2ncc(C(F)(F)F)cc2C(F)(F)F)c2ccc(F)cc2)nn1 | 926638-142-R-J1-PDC complex spheroid viability | 88.5%
Cn1ncnc1[C@H]1c2n[nH]c(=O)c3cc(F)cc(c23)N[C@@H]1c1ccc(F)cc1 + Nc1ccc(C#CCN(C(=O)Cc2ncc(C(F)(F)F)cc2C(F)(F)F)c2ccc(F)cc2)nn1 | 926638-142-R-J1-PDC complex spheroid viability | 99.2%
CC[C@@]1(O)C(=O)OCc2c1cc1n(c2=O)Cc2cc3c(CN(C)C)c(O)ccc3nc2-1 + COC1C(OC(N)=O)C(O)C(Oc2ccc3c(O)c(NC(=O)c4ccc(O)c(CC=C(C)C)c4)c(=O)oc3c2C)OC1(C)C | 926638-142-R-J1-PDC complex spheroid viability | 88.8%
CC[C@@]1(O)C(=O)OCc2c1cc1n(c2=O)Cc2cc3c(CN(C)C)c(O)ccc3nc2-1 + Cc1cccc(N(C)C(=O)C2C(O)CCN2c2nc(C)cc(C(F)(F)F)c2C#N)c1 | 926638-142-R-J1-PDC complex spheroid viability | 71.1%

Switching to the query record.
Data request: Value lookup for viability, T/C; key = Cn1ncnc1[C@H]1c2n[nH]c(=O)c3cc(F)cc(c23)N[C@@H]1c1ccc(F)cc1 + Cc1cccc(N(C)C(=O)C2C(O)CCN2c2nc(C)cc(C(F)(F)F)c2C#N)c1
Data returned: 84.2%
